So I've got a bunch of compounds here, and I need their pKi values.
pKi: −log10 of the molar value. Structures can show the parent of a compound that is named as a salt.

Task: What is its pKi for human Factor Xa (Homo sapiens, UniProt P00742)? Entry: CN1CCc2cc(N3CC[C@H](NS(=O)(=O)c4cc5ccc(Cl)cc5s4)C3=O)ccc2C1.O=CO [Example 8, formate]
Output: > 8.00

Task: What is its pKi for human Factor Xa (Homo sapiens, UniProt P00742)? Entry: CC(C)N1CCc2cc(N3CC[C@H](NS(=O)(=O)c4ccc5cc(Cl)ccc5c4)C3=O)ccc2C1 [Example 30]
Output: > 8.00

Task: What is its pKi for human Factor Xa (Homo sapiens, UniProt P00742)? Entry: Cl.O=C1[C@@H](NS(=O)(=O)c2ccc3c(Cl)c[nH]c3c2)CCN1c1cc2c(cc1Cl)CNCC2 [Example 26, hydrochloride]
Output: > 8.00

Task: What is its pKi for human Factor Xa (Homo sapiens, UniProt P00742)? Entry: CC1NCCc2cc(N3CC[C@H](NS(=O)(=O)/C=C/c4ccc(Cl)s4)C3=O)ccc21 (stereo partly shown) [Example 32, hydrochloride]
Output: > 8.00

Task: What is its pKi for human Factor Xa (Homo sapiens, UniProt P00742)? Entry: Cl.O=C1[C@@H](NS(=O)(=O)c2cc3ccc(Cl)cc3s2)CCN1c1cc2c(cc1F)CNCC2 [Example 21, hydrochloride]
Output: > 8.00

Task: What is its pKi for human Factor Xa (Homo sapiens, UniProt P00742)? Entry: O=C1[C@@H](NS(=O)(=O)c2cc3ccc(Cl)cc3[nH]2)CCN1c1ccc2c(c1)CCNC2.O=CO [Example 6, formate]
Output: > 8.00

Task: What is its pKi for human Factor Xa (Homo sapiens, UniProt P00742)? Entry: Cl.O=C1[C@@H](NS(=O)(=O)c2cc3ccc(Cl)cc3s2)CCN1c1ccc2c(c1)CCNC2 [Example 3, hydrochloride]
Output: > 8.00
